- system: human glucagon receptor (human, UniProt P47871 26-477)
- assay notes: cell-based or functional assay
Starred links: 1 amine or outer side, 2 acyl side, 3 side chain; linkers in the order of their positions; H or OH if unused. Non-standard residues stand in square brackets, D forms with d. No end group written: not given here. *: point of attachment. AMCB = 2-amino-5-(4-chloro-2-methylphenyl)pentanoic acid, Cc1cc(Cl)ccc1CCC[C@H](N[*:1])C(=O)[*:2]; Bip(2'-Et-4'-OMe) = CCc1cc(OC)ccc1-c1ccc(C[C@H](N)C(=O)O)cc1; Leu(5,5,5,5',5',5'-F6) = N[C@@H](CC(C(F)(F)F)C(F)(F)F)C(=O)O; 2F‑APPA = 2-amino-5-(2-fluorophenyl)pentanoic acid; αMePhe(2-F) = C[C@](N)(Cc1ccccc1F)C(=O)O; hhPhe = N[C@@H](CCCc1ccccc1)C(=O)O; aThr = C[C@H](O)[C@H](N)C(=O)O; αMeP = C[C@@]1(C(=O)O)CCCN1; Ac5c = NC1(C(=O)O)CCCC1; CNB = not defined here; Aib = CC(C)(N)C(=O)O; Moc = COC(=O)*
reported metric: inhibition of cAMP production, 10 µM
Be sure to follow the number with its unit.

Reference set (3 entries):
[[record]]
binder = "H[Aib][CNB]GTFTSD[Bip(2'-Et-4'-OMe)][hhPhe] (reading uncertain) [Seq. ID. No. 29: H-Aib-(CNB)-GTFTSD-Bip(OMe)-(APPA)]"
reported_metric = "inhibition of cAMP production, 10 µM"
test_result = "12 pmol/ml/µg prt"

[[record]]
binder = "Moc-H[Aib]QGT[αMePhe(2-F)]TSD[Bip(2'-Et-4'-OMe)][hhPhe] (also: thioamide bonds between residues 9-10 and 10-11) [Seq. ID. No. 170: CH3OCO-H-Aib-QGT-(α-Me-2F-Phe)-TSD-(C═S)-Bip(OMe)-(C═S)-(APPA)]"
reported_metric = "inhibition of cAMP production, 10 µM"
test_result = "0 pmol/ml/µg prt"

[[record]]
binder = "H[Aib]QG[aThr][αMePhe(2-F)][aThr]SD[Bip(2'-Et-4'-OMe)][hhPhe] (also: thioamide bonds between residues 9-10 and 10-11) [Seq. ID. No. 177: H-Aib-QG-T(allo)-(α-Me-2F-Phe)-T(allo)-SD-(C═S)-Bip(OMe)-(C═S)-(APPA)]"
reported_metric = "inhibition of cAMP production, 10 µM"
test_result = "0 pmol/ml/µg prt"


Q: Returns the measured inhibition of cAMP production, 10 µM for the input binder. Input: H[αMeP]QGTFTSD[Bip(2'-Et-4'-OMe)][hhPhe] [Seq. ID. No. 9: H-(α-Me-Pro)-QGTFTSD-Bip(OMe)-(APPA)]
Result: 0 pmol/ml/µg prt

Q: Also need H[Ac5c]QGTFTSD[Bip(2'-Et-4'-OMe)][AMCB] [Seq. ID. No. 28: H-(APP)-QGTFTSD-Bip(OMe)-(AMCB)] , thanks.
Result: 0 pmol/ml/µg prt

Q: Also need Moc-H[Aib]QG[aThr][αMePhe(2-F)][aThr]SD[Bip(2'-Et-4'-OMe)][2F‑APPA] (also: reduced (CH2) bonds between 9-10 and 10-11) [Seq. ID. No. 200: CH3OCO-H-Aib-QG-T(allo)-(α-Me-2F-Phe)-T(allo)-SD-(CH2)-Bip(OMe)-(CH2)-(2F-APPA)] , thanks.
Result: 1 pmol/ml/µg prt

Q: Also need H[Aib][Leu(5,5,5,5',5',5'-F6)]G[aThr][αMePhe(2-F)][aThr]SD[Bip(2'-Et-4'-OMe)][2F‑APPA] (also: thioamide (C═S) bond Z10-Z11) [Seq. ID. No. 218: H-Aib-(Hfl)-G-T(allo)-(α-Me-2F-Phe)-T(allo)-SD-Bip(OMe)-(C═S)-(2F-APPA)] , thanks.
Result: 0 pmol/ml/µg prt
